System under test: FGFR3 (UniProt P22607)
Sequence (P22607 whole entry, looked up): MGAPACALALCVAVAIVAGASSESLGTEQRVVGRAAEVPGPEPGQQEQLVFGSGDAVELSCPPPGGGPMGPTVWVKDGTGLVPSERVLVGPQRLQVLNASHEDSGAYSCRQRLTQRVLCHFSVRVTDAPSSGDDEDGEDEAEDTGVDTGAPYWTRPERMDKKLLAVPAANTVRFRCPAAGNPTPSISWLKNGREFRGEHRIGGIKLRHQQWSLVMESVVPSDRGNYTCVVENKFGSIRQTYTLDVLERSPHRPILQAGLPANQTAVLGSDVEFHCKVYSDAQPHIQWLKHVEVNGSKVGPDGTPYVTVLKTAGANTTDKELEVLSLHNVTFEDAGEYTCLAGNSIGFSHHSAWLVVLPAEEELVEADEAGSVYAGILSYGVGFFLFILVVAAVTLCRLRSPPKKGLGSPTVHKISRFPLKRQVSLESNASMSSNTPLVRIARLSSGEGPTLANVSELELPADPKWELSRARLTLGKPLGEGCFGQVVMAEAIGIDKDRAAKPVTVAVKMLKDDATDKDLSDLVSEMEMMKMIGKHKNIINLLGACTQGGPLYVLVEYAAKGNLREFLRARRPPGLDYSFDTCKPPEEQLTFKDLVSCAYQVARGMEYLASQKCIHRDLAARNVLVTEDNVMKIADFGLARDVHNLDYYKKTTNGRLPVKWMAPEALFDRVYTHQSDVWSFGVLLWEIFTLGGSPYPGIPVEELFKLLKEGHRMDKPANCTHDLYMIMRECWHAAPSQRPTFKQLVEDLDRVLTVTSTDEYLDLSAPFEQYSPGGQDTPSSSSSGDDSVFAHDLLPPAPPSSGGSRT
Method: phosphorylation enrichment, bacterial display (enrichment ratio); higher = better substrate or ligand; peptides without Tyr show the background;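 further: 11-residue human phosphosite peptides and single-mutation variants displayed on the E. coli surface, counted by deep sequencing, each peptide's frequency after selection divided by its frequency in the unselected input library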;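 further: frequency after pTyr selection over input frequency; kinase dosed for 20-30% of maximal phosphorylation in three min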
Rule: phosphorylation enrichment under 0.9 gives -1, otherwise 1.

>>> answer_label("KVMANYVYKAG [MAML2_Y513_M514V]")
-1
>>> answer_label("FDGKDYIALKE [HLA-A_Y147_N151K_YF]")
-1
>>> answer_label("VPLLEYYRDIF [CDAN1_Y712]")
1
>>> answer_label("RNFGTYTAGLS [RHBDD1_Y264_D262G_YF]")
1
>>> answer_label("NQSVRYDSSLK [ABCC8_Y1353_L1349Q]")
-1
>>> answer_label("VRVQLYDPDFM [CYP4A22_Y100_Y104F]")
-1
>>> answer_label("GSESDYIVMPN [SCARB1_Y133]")
1
>>> answer_label("FRPPFYHRNCM [HGD_Y334_YF]")
-1
>>> answer_label("CTTIHHNFMCN [TP53_Y234_Y234H_YF]")
-1
>>> answer_label("IGSHAYGDQYR [IDH1_Y135_R132S]")
-1
>>> answer_label("NACGLYFKLHN [GATA2_Y376_YF]")
-1
>>> answer_label("VLALWYYYLTN [ZDHHC23_Y127_H132N]")
1

---

System under test: MERTK (UniProt Q12866)
Sequence (Q12866 whole entry, looked up): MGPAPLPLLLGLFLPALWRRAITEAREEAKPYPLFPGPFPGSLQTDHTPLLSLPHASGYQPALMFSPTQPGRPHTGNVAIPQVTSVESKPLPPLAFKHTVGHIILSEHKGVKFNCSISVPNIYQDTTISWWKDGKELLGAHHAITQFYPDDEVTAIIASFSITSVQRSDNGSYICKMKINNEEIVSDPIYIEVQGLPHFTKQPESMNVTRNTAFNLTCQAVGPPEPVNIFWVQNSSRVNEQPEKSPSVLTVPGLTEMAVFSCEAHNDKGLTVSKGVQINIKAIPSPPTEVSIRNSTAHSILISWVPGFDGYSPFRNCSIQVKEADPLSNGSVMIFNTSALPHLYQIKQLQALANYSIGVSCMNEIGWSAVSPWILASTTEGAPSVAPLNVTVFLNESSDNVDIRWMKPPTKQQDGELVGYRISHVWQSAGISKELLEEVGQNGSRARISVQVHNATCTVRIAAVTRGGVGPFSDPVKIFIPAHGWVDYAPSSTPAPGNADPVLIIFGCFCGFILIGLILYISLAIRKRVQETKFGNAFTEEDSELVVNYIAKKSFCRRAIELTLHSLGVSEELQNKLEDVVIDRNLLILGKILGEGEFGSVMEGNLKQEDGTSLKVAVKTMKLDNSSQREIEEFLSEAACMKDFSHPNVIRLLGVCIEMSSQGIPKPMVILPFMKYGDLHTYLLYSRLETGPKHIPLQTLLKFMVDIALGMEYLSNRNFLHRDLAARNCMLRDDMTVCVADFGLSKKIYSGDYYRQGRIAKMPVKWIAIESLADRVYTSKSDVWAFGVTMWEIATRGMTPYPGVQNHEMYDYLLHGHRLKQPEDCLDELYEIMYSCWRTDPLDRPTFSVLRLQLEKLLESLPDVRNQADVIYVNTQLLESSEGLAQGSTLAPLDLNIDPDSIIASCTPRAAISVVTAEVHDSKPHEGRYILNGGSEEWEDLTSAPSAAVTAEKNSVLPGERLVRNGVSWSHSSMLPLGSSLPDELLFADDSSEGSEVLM
Method: phosphorylation enrichment, bacterial display (enrichment ratio); higher = better substrate or ligand; peptides without Tyr show the background
phosphorylation enrichment values, listed per item
Measure: phosphorylation enrichment

>>> experimental_value("GIYKDYYRYNF [PLA2G2D_Y85_S80G]")
4.72
>>> experimental_value("FLENFYDLKKD [MMP3_Y42_YF]")
0.549
>>> experimental_value("DPADRYLIEQC [CDKL5_Y286_T288I]")
0.467
>>> experimental_value("IMNLLYHVVGW [GBA_Y412_T408M]")
7.65
>>> experimental_value("RRIHSYRGQLW [VHL_Y112_H115Q]")
0.535
>>> experimental_value("PIYEGYGLPHA [ACTA1_Y171_A172G]")
18.3
>>> experimental_value("IETGKYEILTE")
0.585
>>> experimental_value("RRGTRYMFSRP [RPL21_Y13]")
0.837
>>> experimental_value("RHFVFYFSFLL [PTEN_Y177_R173H_YF]")
0.357
>>> experimental_value("IIEDPYFGNDF [ACP1_Y132_S137F_YF]")
0.487
>>> experimental_value("NACGLYFKLHN [GATA2_Y376_YF]")
0.466
>>> experimental_value("ARLEYCENEKK [IRS1_Y47_Y47C]")
0.449
>>> experimental_value("RAEAQYLLVSN [LRIG1_Y1054]")
0.681
>>> experimental_value("RSYSPCDYQPC [TNS1_Y796_Y796C]")
0.726

---

System under test: Hck (UniProt P08631)
Sequence (P08631 whole entry, looked up): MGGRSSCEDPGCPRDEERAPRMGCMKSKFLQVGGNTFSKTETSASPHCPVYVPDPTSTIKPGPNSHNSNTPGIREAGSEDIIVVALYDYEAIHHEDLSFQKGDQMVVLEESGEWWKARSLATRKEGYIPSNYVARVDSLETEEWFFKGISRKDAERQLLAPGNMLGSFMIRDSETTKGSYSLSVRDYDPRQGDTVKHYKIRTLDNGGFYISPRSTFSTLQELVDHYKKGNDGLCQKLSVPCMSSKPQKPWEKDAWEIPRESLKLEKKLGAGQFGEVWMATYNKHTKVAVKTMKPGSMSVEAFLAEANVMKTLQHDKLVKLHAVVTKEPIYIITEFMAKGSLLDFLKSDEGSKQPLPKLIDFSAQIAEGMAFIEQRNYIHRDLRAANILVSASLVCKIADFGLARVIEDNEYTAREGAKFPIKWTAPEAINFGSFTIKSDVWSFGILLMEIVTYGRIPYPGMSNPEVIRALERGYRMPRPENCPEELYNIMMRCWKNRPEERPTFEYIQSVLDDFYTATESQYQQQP
Method: phosphorylation enrichment, bacterial display (enrichment ratio); higher = better substrate or ligand; peptides without Tyr show the background
Rule: phosphorylation enrichment under 0.5 gives Not met, otherwise Met.

>>> answer_label("KYLENYLNRLL [PLD2_Y169]")
"Not met"
>>> answer_label("GSESDYIVMPN [SCARB1_Y133]")
"Met"
>>> answer_label("EQKKFYNAVKK [SCN5A_Y1495_M1498V_YF]")
"Not met"
>>> answer_label("IIQRAYRGHLL [SCN1A_Y1926_R1928G]")
"Not met"
>>> answer_label("PKFHSYVSLPF [PLXNA2_Y293]")
"Met"
>>> answer_label("YNDSAYNQQLI [ZPLD1_Y198_T197A]")
"Not met"
>>> answer_label("YSQNIYIQNRN [PKP2_Y631]")
"Met"
>>> answer_label("YGSGNYNVFGN [HNRNPA2B1_Y300_D302V]")
"Met"
>>> answer_label("AFPVSYSSSSA [RET_Y687_G691S]")
"Not met"
>>> answer_label("RGLQVYHRRNA [LRP2_Y2010]")
"Met"
>>> answer_label("LLQEWYMIISR [HUWE1_Y4066_R4063Q]")
"Met"
>>> answer_label("YFRDGHMPRQY [GSS_Y270_Y270H]")
"Not met"
>>> answer_label("YCRITYDIFPF [INTS13_Y67_M66T]")
"Met"
>>> answer_label("STSKTYVISRT [RBBP6_Y87]")
"Not met"
>>> answer_label("LFSLGYHQSLW [GANAB_Y396_R400L]")
"Not met"
>>> answer_label("DLDPNYVVSSR [CKM_Y125_L127V]")
"Met"
>>> answer_label("INQGPYENHSV [ATP6V1B1_Y462_R465H]")
"Not met"
>>> answer_label("VDTFWYKFLKP [EPM2A_Y86_R91P]")
"Not met"
>>> answer_label("RAMRRYLERGE [ERBB3_Y680]")
"Met"
>>> answer_label("DLAGRYYALKS [CKB_Y173]")
"Met"
>>> answer_label("CATIHYNFMCN [TP53_Y234_T230A_YF]")
"Met"
>>> answer_label("SSPQPYLVPFL [TAF4_Y652]")
"Not met"
>>> answer_label("NFRRGYHLQVL [CD200R1L_Y138_H135R]")
"Not met"
>>> answer_label("PSQRRNVYYYS [PTEN_Y174_Y174N]")
"Met"
>>> answer_label("FKRAVYCIIGR [NUP93_Y391_YF]")
"Met"
>>> answer_label("KYACSYTPVKA [FLNB_Y708_T703K]")
"Not met"
>>> answer_label("RLLRGHDQYAY [HLA-B_Y137]")
"Met"
>>> answer_label("RHPYFYAPELL [ALB_Y174]")
"Not met"
>>> answer_label("DDDPEDRKFLE [UPF3B_Y160_Y160D]")
"Met"
>>> answer_label("PGDGEYFTLQI [TP53_Y327_L323G]")
"Met"
>>> answer_label("ARGTRYRYVSQ [UCN3_Y95]")
"Not met"
>>> answer_label("QYKDKYLAKHN [CASK_Y712]")
"Not met"
>>> answer_label("PGLSSYGVPAS [FLNB_Y1530]")
"Not met"
>>> answer_label("PELIDYGKLWK [ACTN1_Y193_R197W]")
"Not met"
>>> answer_label("KDKLPYPYDDP [GPX2_Y125]")
"Not met"
>>> answer_label("NDQPDYDSVAS [GIT2_Y392]")
"Met"
>>> answer_label("GIYEDYVEGLR [MYL6_Y89_T85I]")
"Met"
>>> answer_label("SSSAIYDNPDL [DCP1B_Y191_N195D]")
"Met"
>>> answer_label("ARLEFYENEKK [IRS1_Y47_YF]")
"Not met"
>>> answer_label("MDYRSYPREYG [RBM10_Y44]")
"Not met"
>>> answer_label("VTAALYGRLYE [BTD_Y536]")
"Met"
>>> answer_label("LGEGSYGKVKE [STK11_Y60]")
"Met"
>>> answer_label("EEVPLYESATT [DCC_Y809_G805E]")
"Met"
>>> answer_label("MGGSVYFSFPD [HIKESHI_Y55_YF]")
"Met"
>>> answer_label("SSVAGYACLAY [MVD_Y131_A128V]")
"Met"
>>> answer_label("VNQSGYTLIRK [ATP6V0A2_Y688_R685Q]")
"Not met"
>>> answer_label("VTRDEYPSNPM [CEMIP2_Y1015_I1010V]")
"Not met"
>>> answer_label("TVLWLYTGTRP [UGT1A1_Y337_R336L]")
"Not met"
>>> answer_label("APAHKYHGGGG [HBD_Y146_L142P]")
"Not met"
>>> answer_label("AAVDEYLEFRR [FAM221A_Y17_YF]")
"Met"
>>> answer_label("EGELRYMHSRV [ABCD1_Y281_K276E]")
"Not met"
>>> answer_label("STGRSYAGVAV [KLHL3_Y577]")
"Not met"
>>> answer_label("FFDANYDGKEF [MAPRE2_Y162_YF]")
"Met"
>>> answer_label("PNQRRYVFFFS [PTEN_Y174_S170N_YF]")
"Met"
>>> answer_label("RSDEDYLYREE [POR_Y573]")
"Met"
